biological target: NACHT, LRR and PYD domains-containing protein 3 (Mus musculus); assay: Inhibition of NLRP3 in mouse BMDM cells assessed as reduction in IL-1beta production; format: cell-based
pIC50: −log10 of the molar value.

- substance.smiles: "O=C(CBr)C1CCC1"
  pIC50: "~5.30"

====

molecular target: NACHT, LRR and PYD domains-containing protein 3 (Homo sapiens, UniProt Q96P20); assay: Inhibition of NLRP3 in human THP-1 cells assessed as reduction in IL-1beta production measured after 3 hrs; format: cell-based
Sequence (Q96P20 whole entry, the tested form may be a part): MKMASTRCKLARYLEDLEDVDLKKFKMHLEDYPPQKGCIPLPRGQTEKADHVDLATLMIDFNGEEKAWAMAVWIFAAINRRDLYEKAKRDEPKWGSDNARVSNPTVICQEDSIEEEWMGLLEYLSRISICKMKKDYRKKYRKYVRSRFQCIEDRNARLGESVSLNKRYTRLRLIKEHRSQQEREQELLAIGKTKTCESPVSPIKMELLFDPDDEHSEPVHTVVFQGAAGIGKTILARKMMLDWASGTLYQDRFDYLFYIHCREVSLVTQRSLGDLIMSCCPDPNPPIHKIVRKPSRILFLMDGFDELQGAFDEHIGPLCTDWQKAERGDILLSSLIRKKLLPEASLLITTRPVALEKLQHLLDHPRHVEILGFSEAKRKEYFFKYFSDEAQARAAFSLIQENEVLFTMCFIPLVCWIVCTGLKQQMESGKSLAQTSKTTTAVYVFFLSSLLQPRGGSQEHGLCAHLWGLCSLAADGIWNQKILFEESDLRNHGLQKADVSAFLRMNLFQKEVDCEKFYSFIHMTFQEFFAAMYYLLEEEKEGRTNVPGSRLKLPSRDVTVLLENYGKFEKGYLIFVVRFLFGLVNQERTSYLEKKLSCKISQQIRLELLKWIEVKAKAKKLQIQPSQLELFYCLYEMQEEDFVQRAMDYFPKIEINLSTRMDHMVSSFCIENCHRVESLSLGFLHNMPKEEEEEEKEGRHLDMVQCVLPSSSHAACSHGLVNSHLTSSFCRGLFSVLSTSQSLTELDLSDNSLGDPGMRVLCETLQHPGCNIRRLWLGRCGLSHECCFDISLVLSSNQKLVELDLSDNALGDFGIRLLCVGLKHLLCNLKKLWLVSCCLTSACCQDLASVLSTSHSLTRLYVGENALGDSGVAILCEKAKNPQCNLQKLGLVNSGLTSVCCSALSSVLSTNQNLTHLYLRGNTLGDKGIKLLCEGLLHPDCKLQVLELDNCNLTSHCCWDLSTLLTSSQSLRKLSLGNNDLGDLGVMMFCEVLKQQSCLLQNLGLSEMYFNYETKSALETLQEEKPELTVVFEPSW
pIC50: −log10 of the molar value.
observation.type: pIC50

- molecule: "CC(C)c1cc(NC(=O)NS(=O)(=O)C(c2cnn(C)c2)C2CCCN(C)C2)c(C(C)C)s1 (stereo not drawn)"
  recorded.result: "> 7.00"
- molecule: "CS(=O)(=O)NC(=O)Nc1c(-c2ccnc(OC3CCN(Cc4ccccc4)CC3)c2)ccc2c1CCC2"
  recorded.result: "≥ 6.60"
- molecule: "CCc1oc(C(C)C)cc1NC(=O)NS(=O)(=O)C(c1cnn(C)c1)C1CCCN(C)C1 (stereo not drawn)"
  recorded.result: "> 7.00"

====

assay: Inhibition of NLRP3 in PBMC cells (unknown origin) assessed as reduction in IL-1beta production measured after 2 hrs by ELISA assay; format: cell-based
pIC50: −log10 of the molar value.

- substance.smiles: "Cn1cc(N(C[C@@H]2CCCO2)CS(=O)(=O)NC(=O)Nc2c3c(cc4c2CC4)CCC3)cn1"
  pIC50: "> 7.00"

====

biological target: NACHT, LRR and PYD domains-containing protein 3 (Mus musculus, UniProt Q8R4B8); test: Inhibition of NLRP3 in LPS induced mouse BMDM cells assessed as reduction in IL-1beta production measured after 30 mins by ELISA assay; type: cell-based
Sequence (Q8R4B8 whole entry, the tested form may be a part): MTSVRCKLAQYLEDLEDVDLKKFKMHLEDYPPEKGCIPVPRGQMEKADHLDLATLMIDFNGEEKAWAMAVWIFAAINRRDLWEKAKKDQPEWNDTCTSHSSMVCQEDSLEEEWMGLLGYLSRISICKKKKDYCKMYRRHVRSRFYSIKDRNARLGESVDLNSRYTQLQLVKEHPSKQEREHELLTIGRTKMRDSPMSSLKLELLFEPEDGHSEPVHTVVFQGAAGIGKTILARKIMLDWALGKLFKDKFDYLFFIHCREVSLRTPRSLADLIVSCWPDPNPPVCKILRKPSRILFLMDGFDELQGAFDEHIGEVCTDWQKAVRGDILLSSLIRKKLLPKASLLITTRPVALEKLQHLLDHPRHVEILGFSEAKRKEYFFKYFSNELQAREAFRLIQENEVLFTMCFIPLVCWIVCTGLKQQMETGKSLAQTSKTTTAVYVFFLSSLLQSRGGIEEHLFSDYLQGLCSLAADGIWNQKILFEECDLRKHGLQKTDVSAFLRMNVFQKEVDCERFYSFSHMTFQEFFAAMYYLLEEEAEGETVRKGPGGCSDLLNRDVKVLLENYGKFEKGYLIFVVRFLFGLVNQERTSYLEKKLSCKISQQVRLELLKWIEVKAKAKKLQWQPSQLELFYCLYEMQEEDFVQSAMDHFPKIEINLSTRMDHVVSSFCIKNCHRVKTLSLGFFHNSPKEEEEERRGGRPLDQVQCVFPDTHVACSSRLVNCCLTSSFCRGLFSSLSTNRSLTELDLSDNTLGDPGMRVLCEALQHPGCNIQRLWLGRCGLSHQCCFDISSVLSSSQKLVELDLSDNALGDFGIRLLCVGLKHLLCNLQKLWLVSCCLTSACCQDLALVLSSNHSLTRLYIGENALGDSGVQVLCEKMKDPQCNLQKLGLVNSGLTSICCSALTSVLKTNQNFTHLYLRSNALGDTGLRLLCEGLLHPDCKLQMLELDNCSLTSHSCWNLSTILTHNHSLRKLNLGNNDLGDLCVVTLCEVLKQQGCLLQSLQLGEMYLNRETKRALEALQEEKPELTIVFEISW
Catalogue of IC50 values
observation.type: IC50 (nM)

- substance.smiles: "CCC(CC)CN1C(=O)/C(=C/c2ccccc2S(C)(=O)=O)SC1=S"
  observation.type: "IC50"
  recorded.result: 1400
- substance.smiles: "NS(=O)(=O)c1cccc(/C=C2\\SC(=S)N(CC3CCCCC3)C2=O)c1"
  observation.type: "IC50"
  recorded.result: 900

====

target: NACHT, LRR and PYD domains-containing protein 3 (Homo sapiens); assay: Inhibition of NLRP3 in human PBMC cells assessed as reduction in Il-1beta production preincubated for 0.5 hrs followed by LPS treatment for […] and further addition of ATP measured after 45 mins; assay type: cell-based
pIC50: −log10 of the molar value.
observation.type: pIC50

- substance.smiles: "CC(C)c1nn(CC(=O)Nc2ccncn2)c(=O)c2cccn12"
  recorded.result: "< 5.00"

====

Listed next: entries and their corresponding pIC50.
molecular target: NACHT, LRR and PYD domains-containing protein 3 (Mus musculus); test: Inhibition of NLRP3 in mouse J774A.1 cells assessed as reduction of IL-1beta production; assay type: cell-based, J774.A1
pIC50: −log10 of the molar value.
observation.type: pIC50

- substance.smiles: "O=C(/C=C/S(=O)(=O)c1ccccc1Cl)NCCc1ccccc1"
  observation.type: "pIC50"
  recorded.result: 6.04
- substance.smiles: "Cc1ccc(S(=O)(=O)/C=C/C#N)cc1"
  observation.type: "pIC50"
  recorded.result: 5.81

====

experiment: Cytotoxicity against human THP-1 cells assessed as reduction in cell viability measured after 72 hrs by MTT assay; type: toxicity, cell-based; conditions: read-out: TC50
observation.type: CC50 at 72 h

- substance.smiles: "C=C(Cc1ccccc1Cl)C(=O)NCCc1ccc(S(N)(=O)=O)cc1"
  observation.type: "CC50 at 72 h"
  recorded.result: "> 100 µM"

====

assay: Lipophilicity, logP of the compound; assay type: physicochemical; settings: octanol/water

- substance.smiles: "COc1ccc(Cl)cc1C(=O)NCCc1ccc(S(=O)(=O)NO)cc1"
  logP: 0.19

====

target: NACHT, LRR and PYD domains-containing protein 3 (Homo sapiens, UniProt Q96P20); test: Inhibition of NLRP3 (unknown origin) assessed as reduction of IL-1beta production

- substance.smiles: "COc1ccc(Cl)cc1C(=O)NCCc1ccc(S(=O)(=O)NO)cc1"
  experimental.target: "NACHT, LRR and PYD domains-containing protein 3 (Homo sapiens, UniProt Q96P20)"
  scale.unit: "µM"
  IC50: 8.45

====

biological target: NACHT, LRR and PYD domains-containing protein 3 (Mus musculus, UniProt Q8R4B8); assay: Inhibition of NLRP3 in LPS induced mouse BV-2 cells assessed as reduction in IL-1beta production pretreated for 30 mins followed by nigericin addition measured after 2 hrs by ELISA assay; format: cell-based
pIC50: −log10 of the molar value.

- substance.smiles: "CC(C)(O)c1coc(S(=O)(=O)NC(=O)Nc2c3c(cc4c2CCC4)CCC3)c1"
  pIC50: 5.41
- substance.smiles: "COC(=O)c1cccc(C(=O)NC2(C(=O)Nc3c4c(cc5c3CCC5)CCC4)CC2)c1"
  pIC50: 5.69

====

biological target: NACHT, LRR and PYD domains-containing protein 3 (Homo sapiens); experiment: Inhibition of NLRP3 in human THP-1 cells assessed as reduction in caspase 1 level; format: cell-based
pIC50: −log10 of the molar value.

- substance.smiles: "C=CCN1C(=O)/C(=C2/C(=O)Nc3ccccc32)SC1=S"
  pIC50: 6.30

====

target: NACHT, LRR and PYD domains-containing protein 3 (Homo sapiens); experiment: Inhibition of NLRP3 in human PBMC cells assessed as reduction in IL-1beta production preincubated for 30 mins followed by LPS addition measured after 6 hrs; type: cell-based
pIC50: −log10 of the molar value.
Listing of entries alongside the reported pIC50.
observation.type: pIC50

- substance.smiles: "CCNc1cc2c(=O)n(CC(=O)Nc3ccc4nncn4c3)nc(C(C)C)n2n1"
  recorded.result: 7.62
- substance.smiles: "CC(C)c1nn(CC(=O)Nc2ccncn2)c(=O)c2cc(I)nn12"
  recorded.result: "> 7.92"
- substance.smiles: "CC(C)c1nn(CC(=O)N[C@H]2C[C@](C)(O)C2)c(=O)c2ccc(Br)cc12"
  recorded.result: "> 7.60"

====

target: NACHT, LRR and PYD domains-containing protein 3 (Homo sapiens, UniProt Q96P20); test: Inhibition of NLRP3 in human PBMC cells assessed as reduction in TNF alpha level preincubated for 30 mins followed by LPS addition measured after 6 hrs; format: cell-based
pIC50: −log10 of the molar value.

- substance.smiles: "CC(C)c1nn(CC(=O)Nc2ccncn2)c(=O)c2cc(I)nn12"
  inequality.operator: "<"
  pIC50: 5.00
- substance.smiles: "CC(C)c1nc2c(C(C)C)nn(CC(=O)Nc3ccc4nncn4c3)c(=O)c2s1"
  inequality.operator: "="
  pIC50: 4.94
- substance.smiles: "CC(C)c1nn(CC(=O)Nc2ccc3nncn3c2)c(=O)c2sc(C3CC3)nc12"
  inequality.operator: "="
  pIC50: 5.30
- substance.smiles: "CC(C)c1nn(CC(=O)N[C@H]2C[C@](C)(O)C2)c(=O)c2ccc(Br)cc12"
  inequality.operator: "<"
  pIC50: 5.00
- substance.smiles: "CCNc1cc2c(=O)n(CC(=O)Nc3ccc4nncn4c3)nc(C(C)C)n2n1"
  inequality.operator: "="
  pIC50: 5.15

====

target: NACHT, LRR and PYD domains-containing protein 3 (Homo sapiens, UniProt Q96P20); assay: Inhibition of NLRP3 in human PBMC cells assessed as reduction in TNFalpha level preincubated for 0.5 hrs followed by LPS treatment for […] and further addition of ATP measured after 45 mins; format: cell-based
observation.type: IC50

- substance.smiles: "CC(C)c1nn(CC(=O)Nc2ccncn2)c(=O)c2cccn12"
  recorded.result: "> 10 µM"

====

target: NACHT, LRR and PYD domains-containing protein 3 (Homo sapiens); assay: Inhibition of NLRP3 in human THP-1 cells assessed as reduction in IL-1beta production measured after 3 hrs by resazurin staining based assay; format: cell-based
pIC50: −log10 of the molar value.
observation.type: pIC50

- substance.smiles: "O=C(Nc1c2c(cc3c1CCO3)CCC2)NS(=O)(=O)c1ccn(C2CC2)n1"
  observation.type: "pIC50"
  recorded.result: "≥ 6.60"

====

molecular target: NACHT, LRR and PYD domains-containing protein 3 (Mus musculus, UniProt Q8R4B8); assay: Inhibition of NLRP3 in mouse BMDM assessed as reduction in IL-1beta production preincubated for 3 hrs followed by ATP measured after 45 mins by ELISA assay; format: cell-based
observation.type: IC50

- substance.smiles: "C[C@@]1(O)CCCc2oc(S(=O)(=O)NC(=O)Nc3c4c(cc5c3CCC5)CCC4)cc21"
  experimental.target: "NACHT, LRR and PYD domains-containing protein 3 (Mus musculus, UniProt Q8R4B8)"
  recorded.result: "< 100 nM"

Hey, just so you know, these numbers are from ChEMBL document CHEMBL5390258.
